Tested on: SW-620
experiment-notes: NCI tumour cell line growth inhibition, 48 h
Calls of active or inactive are those of the source. No stated cut-off is given here; in the data, active = GI50 up to about 1.1 µM and inactive = higher.
Exercise: state measured GI50 for each of the compounds provided.

compound	tested-on	value-kind	result-value
COC1N(C2CC(O)C(CO)O2)C(=O)NC(=O)C1(F)Br (centres undefined)	SW-620	GI50	32.8 µM (inactive)
C[C@H](CCC(=O)O[C@@H]1CC[C@@]2(C)C(CC[C@H]3[C@@H]4CC[C@H]([C@H](C)CCc5nc6ccccc6[nH]5)[C@@]4(C)CC[C@@H]32)C1)[C@H]1CC[C@H]2[C@@H]3CCC4C[C@H](O)CC[C@]4(C)[C@H]3CC[C@]12C (some centres undefined)	SW-620	GI50	> 100 µM (inactive)
O=C1C(NS(=O)(=O)c2ccccc2)=C(n2cnc3ccccc32)C(=O)c2ccccc21	SW-620	GI50	> 100 µM (inactive)
Oc1ncc(Cl)c(O)n1	SW-620	GI50	> 100 µM (inactive)
CN1C(=O)C(CCO)(C(C)(C)C)c2ccccc21 (centres undefined)	SW-620	GI50	> 100 µM (inactive)
Cc1c2ncccc2cc2oc3ccccc3c(=O)c12	SW-620	GI50	33.5 µM (inactive)

Look at each compound and report its GI50.
1. CCOC(=O)/C(C#N)=C/c1[nH]c(C(=O)OCc2ccccc2)c(C)c1C
2. Cc1cc(S(=O)(=O)NC2=NCCCN2)c(S)cc1Cl
3. C/N=C1\CC2c3cc(OC)c(OC)cc3CCN2C2=C1C(=O)CC(C)(C)C2 (centres undefined)
4. CC1(C)CC2=NC(SSC3=C(C#N)C(c4ccc(Br)cc4)C4=C(O)CC(C)(C)CC4=N3)=C(C#N)C(c3ccc(Br)cc3)C2=C(O)C1 (centres undefined)
5. CC[C@@H]1CSC(/C=C/C2OC3OC(C)(C)OC3C3OC(C)(C)OC23)=N1 (some centres undefined)

1. > 100 µM (inactive)
2. 19.9 µM (inactive)
3. > 100 µM (inactive)
4. > 100 µM (inactive)
5. 3.22 µM (inactive)

====

System: SNB-75
experiment-notes: NCI tumour cell line growth inhibition, 48 h
Active and inactive are the calls of the source. Cut-off read from the data, not from the text of the source: active = GI50 up to about 1.1 µM and inactive = higher. Where a SMILES comes first, the peptide text is derived from it. [ ]: non-standard residue; d: D form. Phe(4-NO2) = N[CH](Cc1ccc([N+](=O)[O-])cc1)C(=O)O
Exercise: state measured GI50 for each of the compounds provided.

# count of solved cases: 4
compound	tested-on	GI50
O=C(CCc1ccccc1)On1c(-c2ccccc2)nc2ccccc2c1=S	SNB-75	9.77 µM (inactive)
COC(=O)CCC(NC(=O)C(CCC(=O)OC)NC(=O)C(CCC(=O)OC)NC(=O)C(CCC(=O)OC)NC(=O)C(CCC(=O)OC)NC(=O)C(Cc1ccc([N+](=O)[O-])cc1)NC(=O)C(CCC(=O)OC)NC(=O)C(CCC(=O)OC)NC(=O)C(CCC(=O)OC)NC(=O)C(CCC(=O)OC)NC(=O)C(CCC(=O)OC)NC(C)=O)C(N)=O (stereo not given) (Ac-E(OMe)E(OMe)E(OMe)E(OMe)E(OMe)[Phe(4-NO2)]E(OMe)E(OMe)E(OMe)E(OMe)E(OMe)-NH2; configuration not given here)	SNB-75	> 100 µM (inactive)
CC(=O)Nc1ccc(C(=O)NN2C(=O)C(Cl)C2c2ccc(O)cc2)cc1 (stereo not given)	SNB-75	> 100 µM (inactive)
COc1ccc(C2N(c3ccc(C)c(N=C=O)c3)C(=O)N3C(c4ccc(OC)cc4)N(c4ccc(C)c(N=C=O)c4)C(=O)N23)cc1 (stereo not given)	SNB-75	37.7 µM (inactive)

For the next question, use this compound.
Report measured GI50; entry is CCOC(=O)CCC(NC(=O)C(CCC(=O)OCC)NC(=O)C(Cc1ccc([N+](=O)[O-])cc1)NC(C)=O)C(=O)NNC(=O)OC(C)(C)C (stereo not given)
> 100 µM (inactive)

Origin of values: ChEMBL document CHEMBL1201862
